Biological target: T1, ZFP SBS#835 (synthetic)
T1 chain: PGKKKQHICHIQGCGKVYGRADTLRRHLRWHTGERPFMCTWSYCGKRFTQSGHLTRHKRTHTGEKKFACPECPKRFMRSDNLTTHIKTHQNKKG
Assay: EMSA
Settings: tags: MBP fusion
metric: pKd
Answers are plain numbers, as −log10 of the molar value.

Query (binder): TAGGGAGCGT (dsDNA) DNA 1: TAGGGAGCGT DNA 2: ACGCTCCCTA ; field requested: pKd
6.82
